Reported Pre-emergent Herbicidal Activity: Abutilon is given for each of the following molecules.
Tested on: Abutilon
Experiment: Pre-emergence herbicidal action
Format: in vivo
Conditions: Table B3; 30 g/ha; rating 10=total damage, 0=no action
Reported property: Pre-emergent Herbicidal Activity: Abutilon

[
  {
    "Molecule": "COC/C=C\\c1nc(C(F)(F)F)ccc1C(=O)C1C(=O)C2CCC(C2)C1=O (centres unmarked) [C]",
    "Result": 4
  },
  {
    "Molecule": "COCCCCc1nc(C(F)(F)F)ccc1C(=O)C1C(=O)C2CCC(C2)C1=O (centres unmarked) [Compound F]",
    "Result": 8
  },
  {
    "Molecule": "COCc1nc(C(F)(F)F)ccc1C(=O)C1C(=O)C2CCC(C2)C1=O (centres unmarked) [B]",
    "Result": 9
  },
  {
    "Molecule": "COCCc1nc(C(F)(F)F)ccc1C(=O)C1C(=O)C2CCC(C2)C1=O (centres unmarked) [A]",
    "Result": 9
  },
  {
    "Molecule": "COCCCc1nc(C(F)(F)F)ccc1C(=O)C1C(=O)C2CCC(C2)C1=O (centres unmarked) [Compound H-14]",
    "Result": 10
  }
]

Provenance of the data: patent US7745495B2
